Test system: Saccharomyces cerevisiae
assayProtocol: protein stability index of tFT-peptide fusion (C-terminal peptide) (PSI (0-1 scale)); higher = more stable (slower turnover)
measurementConditions: genetic background: wild type; temperature: 30 C
Rule: protein stability index of 0.7 or more gives rule met; anything lower gives rule not met.

macromoleculeSequence: PRPSFRPPPPLP
className: rule met

[ask] Could you please find out whether `SPSFPPHRPPQH` has protein stability index that meets 0.7 or exceeds it?
[reply] rule met

###

Tested on: Saccharomyces cerevisiae;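 also: PSI is a weighted mean of sequencing reads over stability bins, variants kept only with over 10 reads, mCherry proximal and sfGFP distal, peptide attached via GGGS linker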
assayProtocol: protein stability index of tFT-peptide fusion (C-terminal peptide) (PSI (0-1 scale)); higher = more stable (slower turnover)
measurementConditions: genetic background: wild type; temperature: 30 C
So I've got a bunch of sequences here, and I need their protein stability index values.
Numbers only.

Below, each entry is followed by its recorded protein stability index result.
macromoleculeSequence: PVALYPVQAYLT
assayResult: 0.231
--
macromoleculeSequence: FVSLVGGFVGTV
assayResult: 0.646
--
macromoleculeSequence: RVHSRSYNVMLD
assayResult: 0.699
--
macromoleculeSequence: RSPPYRPPCLRP
assayResult: 0.722
--
macromoleculeSequence: MCWGSAEAMGFR
assayResult: 0.663
--
macromoleculeSequence: PPTQSRLPLPLL
assayResult: 0.674
--
macromoleculeSequence: TVIWNSLRNCKF
assayResult: 0.819
--
macromoleculeSequence: AGHFITRTGGPT
assayResult: 0.7
--
macromoleculeSequence: RCTLFVNPVCVH
assayResult: 0.349

Would you kindly look at the next entry?
[ask] Which protein stability index value belongs to `DRPACVAHKLFS` ?
[reply] 0.677
